Origin of the recorded values: patent US6355630B1

- Test system: rat uterus
- experiment.summary: Rat uterotrophic/antiuterotrophic test procedure
- Assay type: in vivo
- protocol.conditions: 100 ug Cpd, daily ip, 4-day immature rat

| structure.string | Uterine wet weight / mg |
| --- | --- |
| C[C@]12CC[C@@H]3c4ccc(O)cc4C[C@@H](Sc4ccc(O)cc4)[C@H]3[C@@H]1CC[C@@H]2O | 45.4 |
| C[C@]12CC[C@@H]3c4ccc(O)cc4[C@@H](O)[C@@H](Sc4ccc(O)cc4)[C@H]3[C@@H]1CC[C@@H]2O | 99.9 |
| CCCCN(C)C(=O)CCCCCCCCCCS[C@H]1[C@@H]2[C@H](CC[C@]3(C)[C@@H](O)CC[C@@H]23)c2ccc(O)cc2[C@H]1O | 64.2 |
| C[C@]12CC[C@@H]3c4ccc(O)cc4C(=O)[C@@H](Sc4ccc(O)cc4)[C@H]3[C@@H]1CC[C@@H]2O | 83.1 |
| CCCCN(C)C(=O)CCCCCCCCCCS[C@@H]1Cc2cc(O)ccc2[C@H]2CC[C@]3(C)[C@@H](O)CC[C@H]3[C@@H]21 | 41.6 |
